Reference source: patent US8022225B2

Measured inhibition at 10 µM of individual entries
biological target: human Edg-1(S1P1) (Homo sapiens); construct: expressed in transfected cells; host or cells: HEK-293; test: Membrane system binding test: inhibition of [33P]-S1P binding to the membrane fraction of Edg-1(S1P1) gene transferred HEK-293 cells; conditions: 10 μM compound; [33P]-S1P 0.1 nM; membrane fraction of Edg-1(S1P1) gene transferred HEK-293 cells; read-out: Membrane system binding test % inhibition (10 μM)
Sequence (P21453 whole entry): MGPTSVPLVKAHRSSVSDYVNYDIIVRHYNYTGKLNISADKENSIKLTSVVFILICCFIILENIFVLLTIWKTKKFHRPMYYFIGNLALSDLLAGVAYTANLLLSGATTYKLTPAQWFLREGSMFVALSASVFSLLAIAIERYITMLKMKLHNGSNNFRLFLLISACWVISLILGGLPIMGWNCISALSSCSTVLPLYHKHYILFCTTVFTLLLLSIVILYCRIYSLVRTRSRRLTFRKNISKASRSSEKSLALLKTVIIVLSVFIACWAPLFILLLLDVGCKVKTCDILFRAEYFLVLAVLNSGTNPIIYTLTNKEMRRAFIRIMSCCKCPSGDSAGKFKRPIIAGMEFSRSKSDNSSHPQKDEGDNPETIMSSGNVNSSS
State just the number; it will be interpreted in %.

- COMPOUND: "CCn1c(OC)nnc1[C@@H](C)NS(=O)(=O)c1ccc(OC(F)F)cc1 [Compound 309]"
  inhibition at 10 µM (%): 46.5
- COMPOUND: "CCn1c(OC)nnc1[C@@H](C)NS(=O)(=O)c1ccc(Br)s1 [Compound 208]"
  inhibition at 10 µM (%): 93
- COMPOUND: "CCn1c(OC)nnc1[C@@H](C)NS(=O)(=O)c1cccc2cccnc12 [Compound 240]"
  inhibition at 10 µM (%): 70.3
- COMPOUND: "C=CCSc1nnc(C(Cc2ccccc2)NS(=O)(=O)c2ccc(F)cc2)n1CC (centres unmarked) [Compound 169]"
  inhibition at 10 µM (%): 72.9
- COMPOUND: "CCn1c(OC)nnc1[C@@H](C)NS(=O)(=O)c1ccc(OC)c(OC)c1 [Compound 221]"
  inhibition at 10 µM (%): 56.1
- COMPOUND: "CCn1c(OC)nnc1[C@@H](C)NS(=O)(=O)c1ccc(OC)cc1 [Compound 226]"
  inhibition at 10 µM (%): 42.4
- COMPOUND: "CCCOc1nnc([C@@H](C)NS(=O)(=O)c2ccc(OC)cc2)n1CC [Compound 195]"
  inhibition at 10 µM (%): 91.2
- COMPOUND: "CCn1c(SCC2CCC2)nnc1[C@@H](C)NS(=O)(=O)c1ccc(Cl)cc1 [Compound 34]"
  inhibition at 10 µM (%): 76.4
- COMPOUND: "CCn1c(SCC2CCOC2)nnc1[C@@H](C)NS(=O)(=O)c1ccc(Cl)cc1 (some centres unmarked) [Compound 13]"
  inhibition at 10 µM (%): 43.6
- COMPOUND: "C=CCSc1nnc(C(CCC)NS(=O)(=O)c2ccc(Cl)cc2)n1C (centres unmarked) [Compound 125]"
  inhibition at 10 µM (%): 52.4

Please examine the following record next.
response.value for CCn1c(SCc2ccc(-c3ccccc3)cc2)nnc1[C@@H](C)NS(=O)(=O)c1ccc(Cl)cc1 [Compound 6] (field: inhibition at 10 µM) = 99
